The reported measurements were obtained from patent US11673889B2.

EXPERIMENTAL TARGET: human soluble ENPP1 (Homo sapiens)
Construct: 20 ng of human soluble ENPP1
Sequence (P22413 103-925 limits assumed): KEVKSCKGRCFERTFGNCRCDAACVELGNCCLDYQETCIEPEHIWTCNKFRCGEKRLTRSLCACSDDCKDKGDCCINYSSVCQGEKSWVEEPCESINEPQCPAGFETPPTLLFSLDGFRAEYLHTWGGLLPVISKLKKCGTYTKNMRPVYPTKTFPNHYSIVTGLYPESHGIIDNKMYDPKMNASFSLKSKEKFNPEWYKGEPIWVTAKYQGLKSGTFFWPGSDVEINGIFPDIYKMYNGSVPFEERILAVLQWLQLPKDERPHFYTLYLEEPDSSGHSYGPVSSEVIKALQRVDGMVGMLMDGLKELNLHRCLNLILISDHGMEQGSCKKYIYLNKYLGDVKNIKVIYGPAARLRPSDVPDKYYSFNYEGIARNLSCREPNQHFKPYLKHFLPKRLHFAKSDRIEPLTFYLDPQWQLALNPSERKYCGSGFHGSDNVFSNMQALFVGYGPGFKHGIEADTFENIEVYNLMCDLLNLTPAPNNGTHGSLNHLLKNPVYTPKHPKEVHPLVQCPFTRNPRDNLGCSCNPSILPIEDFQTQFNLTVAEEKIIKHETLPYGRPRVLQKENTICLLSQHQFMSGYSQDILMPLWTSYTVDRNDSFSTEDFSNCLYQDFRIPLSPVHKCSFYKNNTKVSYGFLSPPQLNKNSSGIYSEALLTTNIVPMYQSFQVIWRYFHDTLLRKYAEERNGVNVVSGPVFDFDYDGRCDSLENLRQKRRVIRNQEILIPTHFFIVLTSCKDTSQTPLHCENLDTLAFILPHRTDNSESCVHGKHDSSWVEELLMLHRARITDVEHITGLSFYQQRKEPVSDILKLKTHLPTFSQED
ASSAY PROCEDURE: ENPP1 activity assay using p-Nitrophenyl-5′-TMP as a substrate
Type: biochemical
pIC50: −log10 of the molar value.
Each entry gets criterion not met if its pIC50 stays under 9, and criterion met if its pIC50 is 9 or above.

COMPOUND	ASSIGNED LABEL
COc1cc2ncc3nnc(Cc4ccc(S(N)(=O)=O)cc4)n3c2cc1OC [Compound 44]	criterion not met
COc1ccc2c(ncc3[nH]c(=O)n(Cc4ccc(P(=O)(O)O)c(F)c4)c32)n1 [Compound 121]	criterion not met
COc1ccc2c(ncc3[nH]c(=O)n(Cc4ccc(S(N)(=O)=O)cn4)c32)n1 [Compound 99]	criterion met
COc1ccc2c(ncc3nc(CS(C)(=O)=O)n(Cc4ccc(S(N)(=O)=O)c(F)c4)c32)n1 [Compound 81]	criterion not met

Input: Test whether the compound COc1ccc2c(ncc3ncn([C@H](C)c4ccc(S(N)(=O)=O)cc4)c32)n1 [Compound 54] records pIC50 of 9 or higher.
Output: criterion met

Input: Test whether the compound COc1ccc2c(ncc3ncn(Cc4c(F)cc(S(N)(=O)=O)cc4F)c32)n1 [Compound 129] records pIC50 of 9 or higher.
Output: criterion met

Input: Test whether the compound COc1ccc2c(ncc3nc(C4CNC4)n(Cc4ccc(S(N)(=O)=O)c(F)c4)c32)n1 [Compound 85] records pIC50 of 9 or higher.
Output: criterion not met

Input: Test whether the compound COc1cc2ncc3ncn(Cc4ccc(S(N)(=O)=O)cc4)c3c2cn1 [Compound 50] records pIC50 of 9 or higher.
Output: criterion not met

Input: Test whether the compound COc1ccc2c(ncc3ncn(Cc4ccc(S(N)(=O)=O)c(C(F)(F)F)c4)c32)n1 [Compound 65] records pIC50 of 9 or higher.
Output: criterion not met

Input: Test whether the compound COC(=O)Cc1nc2cnc3nc(OC)ccc3c2n1Cc1ccc(S(N)(=O)=O)c(F)c1 [Compound 83] records pIC50 of 9 or higher.
Output: criterion not met

Input: Test whether the compound COc1ccc2c(n1)nc(C)c1nc(C)n(Cc3ccc(S(N)(=O)=O)cn3)c12 [Compound 89] records pIC50 of 9 or higher.
Output: criterion met

Input: Test whether the compound COc1ccc2c(n1)nc(C)c1nc(CO)n(Cc3cc(F)c(S(N)(=O)=O)cc3F)c12 [Compound 94] records pIC50 of 9 or higher.
Output: criterion not met
